- measured.target: T1, human IL-13 R130Q variant (R110Q of the mature chain) (human, UniProt P35225 35-146, Biotinylated on amines (NHS-LC-biotin, 4:1) in ELISA, panning and competition assays. The letters are unchanged.)
- T1 construct: R130Q counts from Met 1 of the signal peptide, R110Q on the mature chain; Bought from Peprotech; also called IL-13 R110Q; b-R130Q
- T1 sequence (P35225 35-146 limits assumed, stated change not applied): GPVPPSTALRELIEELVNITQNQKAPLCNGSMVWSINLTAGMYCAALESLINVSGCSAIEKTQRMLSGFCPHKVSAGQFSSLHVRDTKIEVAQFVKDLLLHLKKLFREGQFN
- test: SPR (Biacore), mAb made in CHO
Exercise: state measured pKd for each of the binders provided.
Numbers only, as −log10 of the molar value.

Give pKd for all binders that follow.
1. mAb Lc-2B03 with Hc2 T31S, M34S, M100L, V106I (antibody, V domains shown, full-length mAb, made in HEK293 and CHO) VH: QVTLKESGPVLVKPTETLTLTCTVSGFSLSSYGSGVGWIRQPPGKALEWLAHIWWDDVKRYNPALKSRLTISKDTSKSQVVLTMTNMDPVDTATYYCARLGSDYDIWFDYWGQGTLVTVSS VL: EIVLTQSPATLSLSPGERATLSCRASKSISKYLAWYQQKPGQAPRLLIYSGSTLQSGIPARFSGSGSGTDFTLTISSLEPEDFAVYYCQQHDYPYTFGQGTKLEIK
2. mAb Lc-2B03 with Hc2 M34S, M100L (antibody, V domains shown, full-length mAb, made in HEK293 and CHO) VH: QVTLKESGPVLVKPTETLTLTCTVSGFSLSTYGSGVGWIRQPPGKALEWLAHIWWDDVKRYNPALKSRLTISKDTSKSQVVLTMTNMDPVDTATYYCARLGSDYDVWFDYWGQGTLVTVSS VL: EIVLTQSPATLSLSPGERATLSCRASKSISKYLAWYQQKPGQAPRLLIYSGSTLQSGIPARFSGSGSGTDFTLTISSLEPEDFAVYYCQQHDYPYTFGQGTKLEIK
3. mAb Lc-2B03 with Hc2 T31S, M34V, M100L (antibody, V domains shown, full-length mAb, made in HEK293 and CHO) VH: QVTLKESGPVLVKPTETLTLTCTVSGFSLSSYGVGVGWIRQPPGKALEWLAHIWWDDVKRYNPALKSRLTISKDTSKSQVVLTMTNMDPVDTATYYCARLGSDYDVWFDYWGQGTLVTVSS VL: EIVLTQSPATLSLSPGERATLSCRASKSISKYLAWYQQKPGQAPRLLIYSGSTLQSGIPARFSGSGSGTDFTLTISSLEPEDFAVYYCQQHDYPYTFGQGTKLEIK

A.
10.68
10.74
11.24

Reference source for all entries: patent US20120045438A1
